method-description: soluble on expression in E. coli; label from the status in PepcDB or PDB records
property: soluble on expression in E. coli

Input: What measured soluble on expression in E. coli goes with `MEEIDDKSKFKVPSWAAKPPNGAHLDVQKGDALIQKLLIDDKKAYYFGRNNKQVDFAVEHASCSRVHALLLYHGLLQRFALIDMDSSHGTFLGNVRLRPLEVVFMDPGTQFHLGASTRKYSVRLKTEHHVEDDPTVAASDEQLDHQTSYNTAQNRRIPQLPISVEEARRKKRPRGNVAFLEEEEVINPEDVDPSVGRFRNLVTTAIISTNPNKRPGDPKRSEPPRKIVRPGRELMSAPLSSTFGPMALNAAPDLELYGKLLPEPGHHQYVTSTATEDEADDHHKKRYAKEAWPGRKPGAGIF` ?
Output: soluble

Input: What measured soluble on expression in E. coli goes with `GPGSMSASGSGVAAIYGRAEEAQNAPVKLQPVPAFELYKAAREEELCSYRSLCRVLCMHSGGKLTKQQRRILEDMREELCLPTERAEAELAAAREDVLVTSVAASGVLKRRQDFFDGVTDVPLDTLSYAESAKDDNNSLYVAQTKVARTEQIVGGVHGRHAAPSKMSIREIHKNLERIGREVAATSSKLLYCTSVVDQQAYRNVLQQKREQLQAMLREVEDAPPDMSGIASVMPSEHVY` ?
Output: soluble

====

method-description: soluble on expression in E. coli; label from the status in PepcDB or PDB records
property: soluble on expression in E. coli

Input: What measured soluble on expression in E. coli goes with `GDYIYADSNNNGVYGDDNDYTFQKTSNKPKYNFGFQASAAWKGFDLSMVWAGAAGFSIYWGATTGYNAASTEWGSTIAQRVAENHYFYNPENPDDPRTNINAKYPRMAYIDGYVQNRHGNTTLWLYKGDYIKLKNLSLGYTLPKNWVSKIAMQNARVYVSAENLLTITGFEGQDPESATGMGYSPFRTIAIGANITF` ?
Output: not soluble

Input: What measured soluble on expression in E. coli goes with `MGSDKIHHHHHHMREIDVHPAFTDLNGSGPDPDLSPLPVVARVGSYSMGWRVEAHAHQRGQLMFVTNGSMRVETRDGSWITPPGRACWIPSAAVHSAIYTQASKMQTVLIAPELLETLPKRCCVIKLTPLLRELVSQAVAINNQYTLHSREHRLMQVLVDQISTAQQAPLFLPEGRDPRLRRVTESLHQNPGDDRSIEAWAQIAGASARTLARLFQKETGMTYSSWRQQLCLIRAVEMLTEGASVTNIALALGYESTAGFTSMFTRSMGESPSNYLTRWSQETTASE` ?
Output: not soluble

====

method-description: soluble on expression in E. coli; label from the status in PepcDB or PDB records
property: soluble on expression in E. coli

Input: What measured soluble on expression in E. coli goes with `MGSDKIHHHHHHMTLPISVFIITKNEEKHIAKTLASVKDMDEVILVDSGSTDKTLSIAQQFGATIFSHEWQGYAKQKQYAMSLCRNEWVLNLDGDEAINPQLIAAFKEIIEQDKADSVRFWRNDIFIGKPLSSLSKKPNNHRLYKKSKSFFDDSRLAHESATVDGKEIFINQVFDHYGYDSIAAITNKNNTYSTLKADEKFVKGKSFSHLKLFLIFPLVFIKEYLLQRKLFSGRRGFILAVMEAYYAFLKEAKLFENHQNKPN` ?
Output: not soluble

Input: What measured soluble on expression in E. coli goes with `EPNTPFGHTPPKGLPQDEAALDIEDAVHGALEGAGFVHYETSAFAKPAMQCRHNLNYWQFGDYLGIGAGAHGKISYPDRIERTVRRRHPNDYLALMQSQPSEAVERKTVAAEDLPFEFMMNALRLTDGVPAAMLQERTGVPSAKIMAQIETARQKGLLETDPAVFRPTEKGRLFLNDLLQCFL` ?
Output: not soluble

====

method-description: soluble on expression in E. coli; label from the status in PepcDB or PDB records
property: soluble on expression in E. coli

Input: What measured soluble on expression in E. coli goes with `MMQISDTYNQKHSLFNAMNRFIGAVNNMDQTVMVPSLLRDVPLDMEVKDEVHNTIGATNYFSRTDMHGYYILLKSIRNDIEWGVVQGEDRKKDKLSNMEISRLEDGDGEEDLEKQFHYHLSGLHTVLNKLTRKAHILTNRYKEEIGFGSWGH` ?
Output: not soluble

Input: What measured soluble on expression in E. coli goes with `MTRKIDYLNYEEIQSLKNSLLHNIKHTYISRYMILTALYTGMRPGEIAVLTWSDIDFKNQTININKSYNHDKGRVDNYDSSEIDKSTKNTNSVRIIKVDKKFLDILSQLKQNDHEKIFIGKDGTIPTSNAVNKVWRKQLEKLNIDKPSFHFHSVRHTHVALLPFKGVPLYAISKRLGHANMSTTAKKYAYMLDELKQQVRLEHHHHHH` ?
Output: not soluble

Input: What measured soluble on expression in E. coli goes with `CIIDKVTAVRRLNVLTLNVHKGFTFFNRRFILPELREAVRATGADLVFLQEVHGSHQQHALRHPAWPETPQYEFLADSMWPQFAYGRNAVYPHGDHGNALLSKFPIRRFNNLDVSVQGNEQRGLLHCQLEVPGHDEVHAVCVHLGLREAHRQRQVKLMLDLLASLPPNAPVIIAGDFNDWRLKADAVLSEHLTEAFGTPARSFPARLPLLRLDRIYLRNAVPGAAQVLSKYPWSHLSDHVPLAAEINL` ?
Output: not soluble

Input: What measured soluble on expression in E. coli goes with `MAMSFIKPIYQDINSILIGQKVKRPKSGTLSGHAAGEPFEKLVYKFLKENLSDLTFKQYEYLNDLFMKNPAIIGHEARYKLFNSPTLLFLLSRGKAATENWSIENLFEEKQNDTADILLVKDQFYELLDVKTRNISKSAQAPAIISAYKLAQTCAKMIDNKEFDLFDINYLEVDWELNGEDLVCVSTSFAELFKSEPSELYINWAAAMQIQFHVRDLDQGFNGTREEWAKSYLKHFVTQAEQRAISMIDKFVKPFKKYILRSRELVDPNSVQARLQDVDGTIDTRSKLAAAQLYTRASQPELAPEDPEDLEHHHHHH` ?
Output: soluble

Input: What measured soluble on expression in E. coli goes with `MKTIWTGAIGFGLVNIPVKLFSATHESRLDLDMLDKKDHSNIKFQRVNAKTGKEVAWDNIVKGYKIEDDYVILDEKDFEKANAKKTKTIEILQFVQEDEIDSVYFETPYYIQPDKSGTRAYALLREALIKSKKVAVANYVLRNKEALAILKPVGNVIVLNKIRFQEEILDADALDLPAKSAIKEGEMKMALSLIDQLTETFDISKYKDTYTSELLKLIKAKAKGTVVKTKSAASKPTATKDLMAQLKASLQPTKRAAAR` ?
Output: not soluble

New cases:
Input: What measured soluble on expression in E. coli goes with `MSLSSPNILLTRIDNRLVHGQVGVTWTSTIGANLLVVVDDVVANDDIQQKLMGITAETYGFGIRFFTIEKTINVIGKAAPHQKIFLICRTPQTVRKLVEGGIDLKDVNVGNMHFSEGKKQISSKVYVDDQDLTDLRFIKQRGVNVFIQDVPGDQKEQIPDEGHHHHHH` ?
Output: soluble

Input: What measured soluble on expression in E. coli goes with `MDYRFGRQYRLLKTDDFSSVFAFRNRRSRDLLQVSRSNGNGLGHPRIGLVVGKKTAKRANERNYMKRVIRDWFRLNKNRLPPQDFVVRVHRKFDRATAKQARAELAQLMFGNPATGCRKQA` ?
Output: not soluble

Input: What measured soluble on expression in E. coli goes with `MGSDKIHHHHHHMTQRTFTPPWWARNPHVQTILPVLTKVNKPALTRQRLELEDGDFIDLDWLAKPTQTAPTQIEPIVVLVHGLEGSADSHYARRLLTLLDDHKVAALVHHHRSCSGVTNRLARSYHSGDTQDLHTTLSQLRRDYPDSPLLAVGYSLGGNVLTKYMGEHGSDSLVDRAVVISAPLQLGACAKRLRHGFSKVYQSYLIKQLQQKVRDKLALPDLSAQMPVTQAEVESLTTFHLFDDRVTAPLHGFDGVEDYYRRASGLPYLSQVAKPTLVIHAKDDPFMTDEVIPTQEALSPQVTYELHPQGGHVGFIDGGHPFKPRYYLEQRIVHFLLEA` ?
Output: not soluble

Input: What measured soluble on expression in E. coli goes with `MSLQEELSVLLKAQYPLIYLVTSEEERAEQAVYRIVQEVTRHQRLFVWTVTHGFREYGVAQQKTHHNTMSPEAAIEWVVRQEPGIFIFKDLHPFISSPAVTRWLREAIASFKGTEKAIILMSPYQETPIELEKDVVVLDFALPDLVTLDGVLGQQLGKSRHALGEDSREKLLKAALGLTKDEAEKVYRKAYVKAGQLTEGEVEIVLSEKKQMIRRNEGHHHHHH` ?
Output: soluble

Input: What measured soluble on expression in E. coli goes with `GPGSMMDCDHLLRLGMTAKKILENGKGILAADETPKTLGRRFEKLGITNTEENRRKFREILFSTKGIERYIGGVILNQETFEQTSGSGVPLTELLKKKGIEIGIKLDKGLIDYKEKEKISVGLEDLDLRCKSSAFKDATFAKWRSLFYFYDGIPSEDCINENCSILAKYAIICQKNGLVPIVEPEVFLEGDYSMKRSYEVTRQILSTLMKYLNYELVYIPGVLIKASYVTSGQLSNEKYTPKKVATFTLRALLSTIPCGIPGIVFLSGGHGSEDAIGFLNAINMERGCRTWSLSFSFARALTDGVLETWRGDDSNIEEAQKILLETSFKACRGAEGKLWDQE` ?
Output: soluble

Input: What measured soluble on expression in E. coli goes with `MGSDKIHHHHHHMSEISAIWERIEAWHAANDQTENLNPGATAEALAQAEKDMGLTFPPEMRESLLRHDGSVDDSWPTGELLSLERMADERKVWMDLLQDGTFDGNASHNESSEALQPGWWNPAWIPLDADGGGNGAVIDLAPGPQGTVGQVIDMDHEVGPSGPKYVSLAAYLEAMLERLSEAEE` ?
Output: not soluble

Input: What measured soluble on expression in E. coli goes with `MHHHHHHSSGRENLYFQGSVFGVPLTVNVQRTGQPLPQSIQQAMRYLRNHCLDQVGLFRKSGVKSRIQALRQMNEGAIDCVNYEGQSAYDVADMLKQYFRDLPEPLMTNKLSETFLQIYQYVPKDQRLQAIKAAIMLLPDENREVLQTLLYFLSDVTAAVKENQMTPTNLAVCLAPSLFHLNTLKRENSSPRVMQRKQSLGKPDQKDLNENLAATQGLAHMIAECKKL` ?
Output: soluble
